# TARGET_UNDER_TEST: hGLP-1R (Homo sapiens, UniProt P43220)
# Sequence (P43220 24-463): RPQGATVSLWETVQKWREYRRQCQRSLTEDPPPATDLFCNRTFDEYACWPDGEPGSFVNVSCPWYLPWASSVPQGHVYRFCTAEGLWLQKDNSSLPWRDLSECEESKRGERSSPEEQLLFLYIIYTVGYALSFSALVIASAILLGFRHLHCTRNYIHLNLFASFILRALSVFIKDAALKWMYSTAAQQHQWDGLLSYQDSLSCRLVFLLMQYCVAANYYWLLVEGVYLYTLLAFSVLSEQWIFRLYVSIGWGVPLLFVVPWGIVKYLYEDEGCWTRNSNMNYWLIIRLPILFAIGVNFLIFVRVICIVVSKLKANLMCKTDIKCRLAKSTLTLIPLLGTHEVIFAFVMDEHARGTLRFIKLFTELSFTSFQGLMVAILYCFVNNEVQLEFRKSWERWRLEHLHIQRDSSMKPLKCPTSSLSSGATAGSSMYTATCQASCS
# ASSAY_PROTOCOL: Functional cAMP activity in the presence of 1% HSA
# Type: cell-based
# MEASUREMENT_CONDITIONS: read-out: cAMP Rel EC50, hGLP-1R
pEC50: −log10 of the molar value. Starred links: 1 amine or outer side, 2 acyl side, 3 side chain; linkers in the order of their positions; H or OH if unused. Non-standard residues stand in square brackets, D forms with d. Groups on a side chain read outwards from the residue. No end group written: not given here. *: point of attachment. C20 diacid = O=C(O)CCCCCCCCCCCCCCCCCCC(=O)*; C18 diacid = O=C(O)CCCCCCCCCCCCCCCCC(=O)*; αMePhe(2-F) = C[C@](N)(Cc1ccccc1F)C(=O)O; γGlu = O=C(O)[C@H](CCC(=O)[*:2])N[*:1]; αMe4Pal = C[C@](N)(Cc1ccncc1)C(=O)O; αMeY = C[C@](N)(Cc1ccc(O)cc1)C(=O)O; 4Pal = N[C@@H](Cc1ccncc1)C(=O)O; αMeL = CC(C)C[C@](C)(N)C(=O)O; αMeS = C[C@](N)(CO)C(=O)O; Orn = NCCC[C@H](N)C(=O)O; AEEA = NCCOCCOCC(=O)O; Aib = CC(C)(N)C(=O)O
MEASUREMENT_KIND: pEC50

1) H-Y[Aib]QGTFTSD[4Pal]S[Orn][αMeL]LD[Orn]K([γGlu-γGlu-C18 diacid])AQ[Aib]AFIE[αMeY]LLEGGPSSGAPPPSGSEE-NH2 [Example 1064] = 6.04
2) H-Y[Aib]QGT[αMePhe(2-F)]TSD[4Pal][αMeS]I[αMeL]LD[Orn]K([γGlu-γGlu-C18 diacid])AQ[Aib][Orn]FI[dE][αMeY]LAEGGPSSGEPPPSGAEE-NH2 [Example 591] = 7.35
3) H-Y[Aib]QGTFTSD[4Pal][αMeS]Q[αMeL]LD[Orn]K([dE-γGlu-C18 diacid])AQ[αMe4Pal]QFIQ[αMeY]LIE[Aib]GPSSGAPPPSGGGE-NH2 [Example 1186] = 7.28
4) H-Y[Aib]QGTFTSDFS[Orn][αMeL]LDKK([AEEA-AEEA-γGlu-C18 diacid])AQ[Aib]AFIEYLLE[dA]GPSSGEPPPSGT-NH2 [Example 156] = 6.16
5) H-Y[Aib]QGT[αMePhe(2-F)]TSD[4Pal]SI[αMeL]LD[Orn]K([AEEA-γGlu-C18 diacid])AQ[αMe4Pal]EFI[dE][αMeY]LIEGGPSSGAPPPSGS-NH2 [Example 640] = 7.56
6) Y[Aib]QGT[αMePhe(2-F)]TSD[4Pal][αMeS]I[αMeL]LD[Orn]QAQ[αMe4Pal]EFI[dE][αMeY]LIEGGPSSGAPPPSGGGE-NH2 [Example 1234] = 8.94
7) H-Y[Aib]QGTFTSD[4Pal]SR[αMeL]LDKK([γGlu-γGlu-C18 diacid])AQ[αMe4Pal]AFIE[αMe4Pal]LIEGGPSSGAPPPSGS-NH2 [Example 953] = 6.46
8) Y[Aib]QGTFTSD[4Pal]SQ[αMeL]LD[Orn]K([AEEA-γGlu-C18 diacid])AQ[αMe4Pal]QFIE[αMeY]LIE[Aib]GPSSGEPPPSGSEE-NH2 [Example 1098] = 6.74
9) H-Y[Aib]QGTFTSD[4Pal]SQ[αMeL]LD[Orn]K([γGlu-γGlu-C18 diacid])AQ[αMe4Pal]AFIEYLIE[Aib]GPSSGAPPPSGSEE-NH2 [Example 937] = 6.58
10) Y[Aib]QGT[αMePhe(2-F)]TSD[4Pal][αMeS]I[αMeL]LD[Orn]K([γGlu-γGlu-C18 diacid])AQ[Aib][Orn]FI[dE][αMeY]LQEGGPSSGEPPPEGTE-NH2 [Example 503] = 7.58
11) H-Y[Aib]QGTFTSDFSK[αMeL]LDKK([AEEA-γGlu-C20 diacid])AQ[Aib]AFIEWLLEGGPSSGAPPPSEG-NH2 [Example 37] = 6.29
12) Y[Aib]QGTFTSDFSK[αMeL]LDKK([AEEA-γGlu-C18 diacid])AQ[Aib]AFIEYLIE[Aib]GPSSGAPPPSGS-NH2 [Example 797] = 6.99
13) H-Y[Aib]QGTFTSDYSI[αMeL]LDKQAAK([AEEA-AEEA-γGlu-C20 diacid])QFVEWLIAGGPSSGEPPPAEG-NH2 [Example 332] = 6.53
14) H-Y[Aib]QGTFTSDFS[Orn][αMeL]LDKK([γGlu-AEEA-γGlu-C18 diacid])AQ[Aib]AFIEYLLE[Aib]GPSSGAPPPSGS-NH2 [Example 193] = 6.33
15) H-Y[Aib]QGT[αMePhe(2-F)]TSD[4Pal][αMeS]I[αMeL]LD[Orn]K([AEEA-γGlu-C18 diacid])AQ[αMe4Pal]EFI[dE][αMeY]LVEGGPSSGEPPPSGS-NH2 [Example 733] = 7.46
16) H-Y[Aib]QGTFTSD[4Pal]SQ[αMeL]LDKK([γGlu-γGlu-C18 diacid])AQ[αMe4Pal]AFIE[αMe4Pal]LIE[Aib]GPSSGEPPPSGEEE-NH2 [Example 1124] = 6.52
17) H-Y[Aib]QGTFTSD[4Pal]SR[αMeL]LDKK([AEEA-γGlu-C18 diacid])AQ[Aib]AFIEYLIE[Aib]GESSGAPPPSGS-NH2 [Example 187] = 6.75
18) H-Y[Aib]QGT[αMePhe(2-F)]TSD[4Pal]SI[αMeL]LD[Orn]K([AEEA-γGlu-C18 diacid])AQ[αMe4Pal][Orn]FI[dE][αMeY]LIEGGPSSGDPPPEGTGE-NH2 [Example 732] = 7.57
19) H-Y[Aib]QGT[αMePhe(2-F)]TSD[4Pal][αMeS]I[αMeL]LD[Orn]K([γGlu-γGlu-C18 diacid])AQ[Aib][Orn]FI[dE][αMeY]LSEGGPSSGEPPPSGTEEE-NH2 [Example 562] = 7.05
20) H-Y[Aib]QGTFTSD[4Pal]SQ[αMeL]LD[Orn]K([AEEA-γGlu-C18 diacid])AQ[αMe4Pal]AFI[dE][αMeY]LIEGGPSSGAPPPSGSEE-NH2 [Example 1042] = 6.19
21) Y[Aib]QGTFTSD[4Pal]SQ[αMeL]LDKK([γGlu-dE-dE-C18 diacid])AQ[αMe4Pal]AFIEYLIE[Aib]GPSSGAPPPSGSEE-NH2 [Example 930] = 6.08

All values here come from patent US20240270821A1.
